tested on: T. gondii RH strain (RH-Tub-eYFP) tachyzoites; experiment: microbe, parasite or virus in culture; format: cell-based, Toxoplasma gondii; conditions: library screen at 2 μg/mL, 72 h, % growth, replicate 2
As shown below, each of these compounds has a reported Tg_72h_%Growth_Rep2 value.

[
  {
    "compound": "CCCCCC[C@H]1C(=O)O[C@H](C)[C@H](NC(=O)c2cccc(NC=O)c2O)C(=O)O[C@@H](C)[C@@H]1OC(=O)CC(C)C [Antimycin A1]",
    "units.symbol": "%",
    "Tg_72h_%Growth_Rep2": 4.89
  },
  {
    "compound": "CCCCCC[C@H]1C(=O)O[C@H](C)[C@@H](O)/C=C/C=C/C=C/C=C/C=C(\\C)[C@@H](O)C[C@H](O)C[C@H](O)C[C@H](O)C[C@H](O)C[C@H](O)C[C@@H]1O [Filipin II]",
    "units.symbol": "%",
    "Tg_72h_%Growth_Rep2": 103.40
  },
  {
    "compound": "CC[C@H](C)[C@H]1O[C@]2(C=C[C@@H]1C)C[C@@H]1C[C@@H](C/C=C(\\C)[C@@H](O[C@H]3C[C@H](OC)[C@@H](O[C@H]4C[C@H](OC)[C@H](NC(C)=O)[C@H](C)O4)[C@H](C)O3)[C@@H](C)/C=C/C=C3\\CO[C@@H]4[C@H](O)C(C)=C[C@@H](C(=O)O1)[C@]34O)O2 [Eprinomectin B1a, reference compound]",
    "units.symbol": "%",
    "Tg_72h_%Growth_Rep2": 101.56
  },
  {
    "compound": "C=C1[C@@H](C)[C@H]2[C@H](Cc3ccccc3)NC(=O)[C@]23[C@H](OC(C)=O)[C@@H]2O[C@H]2[C@@](C)(O)C(=O)[C@@H](C)C/C=C\\[C@H]3[C@@H]1O [Epoxycytochalasin D, 19,20-]",
    "units.symbol": "%",
    "Tg_72h_%Growth_Rep2": 1.47
  },
  {
    "compound": "O=C1c2c(O)cc(O)cc2OC1(O)Cc1ccc(O)c(O)c1 (centres unmarked) [Alphitonin]",
    "units.symbol": "%",
    "Tg_72h_%Growth_Rep2": 96.34
  }
]

###

As shown below, each of these compounds has a reported Pf_120h_%Growth_Rep2 value.
system: P. falciparum 3D7 parasites; assay: P. falciparum growth inhibition assay, 2-cycle (120 h treatment), delayed-death screen and dose-response; format: cell-based, Plasmodium falciparum; details: library screen at 2 μg/mL, 120 h, % growth, replicate 2

[
  {
    "compound": "C/C=C/C=C/C=C/C(=O)N[C@H]1CCCNC(=O)[C@H](C)N(C)C(=O)[C@H](C(C)C)N(C)C1=O [Aspochracin]",
    "Pf_120h_%Growth_Rep2, %": 101.25
  },
  {
    "compound": "CC1=C[C@@H]2/C=C(/C)CCC(=O)[C@@H](O)CCC(=O)[C@]23C(=O)N[C@@H](CC(C)C)[C@@H]3[C@@H]1C [Aspochalasin M]",
    "Pf_120h_%Growth_Rep2, %": 79.20
  },
  {
    "compound": "CO[C@H]1C[C@H](O[C@@H]2/C(C)=C/C[C@@H]3C[C@@H](C[C@]4(C=C[C@H](C)[C@@H](C5CCCCC5)O4)O3)OC(=O)[C@@H]3C=C(C)[C@@H](O)[C@H]4OC/C(=C\\C=C\\[C@@H]2C)[C@]43O)O[C@@H](C)[C@@H]1O [Doramectin monosaccharide]",
    "Pf_120h_%Growth_Rep2, %": 82.00
  },
  {
    "compound": "COc1c(OC)c(-c2c[nH]c3ccccc23)c(OC)c(OC)c1-c1c[nH]c2ccccc12 [Asterriquinol D dimethylether]",
    "Pf_120h_%Growth_Rep2, %": 80.70
  },
  {
    "compound": "CO[C@H]1C[C@H](O[C@H]2[C@H](C)O[C@@H](O[C@@H]3/C(C)=C/C[C@@H]4C[C@@H](C[C@]5(C=C[C@H](C)[C@@H](C6CCCCC6)O5)O4)OC(=O)C4=C[C@H](C)[C@@H](O)[C@H]5OC/C(=C\\C=C[C@@H]3C)[C@@]45O)C[C@@H]2OC)O[C@@H](C)[C@@H]1O [Doramectin, delta2-]",
    "Pf_120h_%Growth_Rep2, %": 0.97
  },
  {
    "compound": "CCC(=O)Nc1c2sscc-2n(C)c1=O [Aureothricin]",
    "Pf_120h_%Growth_Rep2, %": -0.06
  }
]

###

As shown below, each of these compounds has a reported Tg_72h_%Growth_Rep2 value.
system: T. gondii RH strain (RH-Tub-eYFP) tachyzoites; assay: microbe, parasite or virus in culture; type: cell-based, Toxoplasma gondii; conditions: library screen at 2 μg/mL, 72 h, % growth, replicate 2
*1 amine or outer side, *2 acyl side, *3 side chain or, on linkers, in order; H or OH if unused. Where a SMILES comes first, the peptide text is derived from it. Bridges are numbered along the chain shown (N, C = ends). [ ]: non-standard residue; d: D form. The star is where a group is joined. hTyr(3S-OH,4S-OH,3'-OSO3H) = N[C@H](C(=O)O)[C@H](O)[C@@H](O)c1ccc(O)c(OS(=O)(=O)O)c1; Orn(4R-OH,5R-OH) = O=C([C@H](C[C@@H](O)[C@@H](O)N[*:3])N[*:1])[*:2]; Pro(3S-OH,4S-Me) = C[C@H]1CN[C@H](C(=O)O)[C@H]1O; Gln(3R-OH) = NC(=O)C[C@@H](O)[C@H](N)C(=O)O; Palmitoyl = CCCCCCCCCCCCCCCC(=O)*; Hyp = O=C(O)[C@@H]1C[C@@H](O)CN1

[
  {
    "compound": "CC[C@H]1OC(=O)[C@H](C)[C@@H](O[C@H]2C[C@@](C)(O)[C@@H](O)[C@H](C)O2)[C@H](C)[C@@H](O[C@@H]2O[C@H](C)C[C@H](N(C)C)[C@H]2O)[C@](C)(O)C[C@@H](C)C(=O)[C@H](C)[C@@H](O)[C@]1(C)O [Erythromycin C]",
    "Tg_72h_%Growth_Rep2": "43.52%"
  },
  {
    "compound": "CCCCCCCCCCCCCCCC(=O)N[C@H]1C[C@@H](O)[C@@H](O)NC(=O)[C@@H]2[C@@H](O)[C@@H](C)CN2C(=O)[C@H]([C@H](O)CC(N)=O)NC(=O)[C@H]([C@H](O)[C@@H](O)c2ccc(O)c(OS(=O)(=O)O)c2)NC(=O)[C@@H]2C[C@@H](O)CN2C(=O)[C@H]([C@@H](C)O)NC1=O [FR 901379] (Palmitoyl-[Orn(4R-OH,5R-OH)]T[Hyp][hTyr(3S-OH,4S-OH,3'-OSO3H)][Gln(3R-OH)][Pro(3S-OH,4S-Me)]; lactam 1-C)",
    "Tg_72h_%Growth_Rep2": "105.49%"
  },
  {
    "compound": "C=C1CC[C@H]2[C@@](C)(CC[C@H]3C(C)(C)[C@@H](OC(C)=O)CC[C@]23C)[C@@H]1Cc1c(O)cc(C)oc1=O [Aszonapyrone A]",
    "Tg_72h_%Growth_Rep2": "88.05%"
  },
  {
    "compound": "CN1C(=O)c2ccccc2-n2c(nc3ccccc3c2=O)[C@@]12O[C@H]2c1ccccc1 [Benzomalvin C]",
    "Tg_72h_%Growth_Rep2": "100.15%"
  },
  {
    "compound": "O=C(O)C1CSC(c2ccccc2O)=N1 (stereo not shown) [Dihydroaeruginoic acid]",
    "Tg_72h_%Growth_Rep2": "84.93%"
  },
  {
    "compound": "CC1=C[C@H]2O[C@@H]3[C@H](O)C[C@](C)([C@@]2(CO)[C@H](O)C1=O)[C@]31CO1 [Deoxynivalenol]",
    "Tg_72h_%Growth_Rep2": "0.56%"
  },
  {
    "compound": "COC(=O)[C@@]12C(=O)C(C)C(=O)[C@]1(C)C(C)=C[C@H]1[C@]3(C=O)CC[C@H](OC(C)=O)C(C)(C)[C@H]3CC[C@@]12C (stereo partly shown) [Andrastin A]",
    "Tg_72h_%Growth_Rep2": "88.06%"
  },
  {
    "compound": "Cc1c2c(c(O)c3c(O)ccc(Cl)c13)C(=O)[C@]1(O)C(O)=C(C(N)=O)C(=O)[C@@H](N(C)C)[C@@H]1C2.Cl [Anhydrochlortetracycline hydrochloride]",
    "Tg_72h_%Growth_Rep2": "94.77%"
  },
  {
    "compound": "C=C[C@@H](CO)[C@H]1CCN2CCc3c([nH]c4ccccc34)[C@@H]2C1 [Anthirine]",
    "Tg_72h_%Growth_Rep2": "53.47%"
  },
  {
    "compound": "COc1cc(/C=C/C(=O)O)ccc1O [Ferulic acid]",
    "Tg_72h_%Growth_Rep2": "94.55%"
  },
  {
    "compound": "C/C=C/[C@@H]1C=C[C@@H]2C[C@H](C)CC[C@H]2[C@]1(C)/C(O)=C1/C(=O)[C@@H](CO)N(C)C1=O [Epiequisetin]",
    "Tg_72h_%Growth_Rep2": "98.00%"
  },
  {
    "compound": "C[C@@H]1CCCCCCCCC[C@H](OC(=O)CCC(=O)O)C(=O)/C=C/C(=O)O1 [A 26771B]",
    "Tg_72h_%Growth_Rep2": "102.55%"
  },
  {
    "compound": "CC1=C[C@@H]2/C=C(/C)CCC(=O)[C@@H](O)CCC(=O)[C@]23C(=O)N[C@@H](CC(C)C)[C@@H]3[C@@H]1C [Aspochalasin M]",
    "Tg_72h_%Growth_Rep2": "96.90%"
  },
  {
    "compound": "CC(=O)NCCc1c[nH]c2ccccc12 [Acetyltryptamine, N-]",
    "Tg_72h_%Growth_Rep2": "85.68%"
  },
  {
    "compound": "COC1=C(OC)C(=O)C(C)=CC1=O [Fumigatin methylether]",
    "Tg_72h_%Growth_Rep2": "97.15%"
  },
  {
    "compound": "CC(=O)OC[C@]12CCC(C)=C[C@H]1O[C@@H]1[C@H](O)[C@@H](O)[C@@]2(C)[C@]12CO2 [Acetoxyscirpenol, 15-]",
    "Tg_72h_%Growth_Rep2": "0.34%"
  }
]
